Target: HIF-2α HIS TAG-PASB Domain (Homo sapiens)
Construct: 100 nM HIF-2α HIS TAG-PASB Domain
Sequence (Q99814 240-350 limits assumed): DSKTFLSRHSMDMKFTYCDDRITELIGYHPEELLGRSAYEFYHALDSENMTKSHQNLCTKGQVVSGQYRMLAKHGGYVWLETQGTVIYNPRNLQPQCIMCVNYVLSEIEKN
Experiment: HIF-2α Scintillation Proximity Assay (SPA)
Type: binding
Settings: read-out: Scintillation Proximity Assay IC50
Each entry below carries its recorded IC50.
READOUT_TYPE: IC50

NS(=O)(=O)c1ccc(Oc2cc(F)cc(F)c2)c2c1C(O)CC2 (stereo not shown) [Compound 257] : > 1000 nM
N=S(=O)(c1ccc(Oc2cc(F)cc(Cl)c2)c(Br)c1)C(F)(F)F (stereo not shown) [Compound 71] : 250 to 1000 nM
COc1ccc(S(C)(=O)=O)c2c1CC(F)(F)[C@H]2O [Compound 777] : > 1000 nM
OC1c2c(Br)ccc(OCC(F)F)c2CC1(F)F (stereo not shown) [Compound 687] : > 1000 nM
O=S(=O)(c1ccc(Oc2cc(Cl)ccc2F)c(Br)c1)C(F)(F)F [Compound 170] : > 1000 nM
CC1(O)c2cc(Oc3cc(F)cc(F)c3)ccc2S(=O)(=O)C1(F)F (stereo not shown) [Compound 425] : > 1000 nM
Cc1c(Oc2cc(F)cc(Cl)c2)ccc(S(=O)(=O)C(F)(F)F)c1Br [Compound 140] : < 50 nM
COC[C@@H](C)Oc1ccc(S(=O)(=O)C(F)(F)F)c2c1CC(F)(F)[C@H]2O [Compound 659] : < 50 nM
O=S(=O)(c1ccc(OC2CCC2)c2c1[C@H](O)C(F)(F)C2)C(F)(F)F [Compound 657] : < 50 nM
CS(=O)(=O)c1ccc(Oc2cc(F)cc(C#N)c2)c2c1C(O)C1(CC1)C2 (stereo not shown) [Compound 217] : > 1000 nM
O=S(=O)(c1ccc(Oc2cc(Cl)cc(Cl)c2)c(Br)c1)C(F)(F)F [Compound 172] : 250 to 1000 nM
N=S(=O)(c1ccc(Oc2cc(F)cc(Cl)c2)c(Br)c1)C(F)F (stereo not shown) [Compound 69] : > 1000 nM
CCOc1ccc(S(=O)(=O)C(F)(F)F)c2c1CC(F)(F)C2O (stereo not shown) [Compound 591] : 250 to 1000 nM
O=S(=O)(c1ccc(Oc2ccc3[nH]ncc3c2)c2c1C(O)C(F)(F)C2)C(F)(F)F (stereo not shown) [Compound 238] : > 1000 nM
O=S(=O)(c1ccc(Oc2cc(F)cc(Cl)c2)c(CCO)c1)C(F)(F)F [Compound 127] : > 1000 nM
O=S(=O)(c1ccc(Oc2cc(F)cc(Cl)c2)c2c1[C@H](O)CC2)C(F)(F)F [Compound 56] : < 50 nM
O=C1Cc2ccc(-c3ccc(S(=O)(=O)C(F)(F)F)c4c3CC(F)(F)[C@H]4O)cc2N1 [Compound 567] : > 1000 nM
CS(=O)(=O)c1ccc(O[C@H]2C[C@@H](O)C2)c2c1[C@H](O)C(F)(F)[C@@H]2F [Compound 735] : 250 to 1000 nM
OC1c2cccc(OCC(F)F)c2CC1(F)F (stereo not shown) [Compound 651] : > 1000 nM
COC(C)COc1ccc(S(=O)(=O)C(F)(F)F)c2c1CC(F)(F)C2O (stereo not shown) [Compound 626] : < 50 nM
NC(=O)Cc1ccc(S(=O)(=O)C(F)(F)F)c2c1CCC2O (stereo not shown) [Compound 523] : 250 to 1000 nM
C=CS(=O)(=O)c1ccc(Oc2cc(F)cc(Cl)c2)c(Br)c1 [Compound 130] : > 1000 nM
N#CN=S1(=O)c2ccc(Oc3cc(F)cc(F)c3)c(Cl)c2[C@@H](O)C1(F)F (stereo partly shown) [Compound 412] : 50 to 249 nM
O=S(=O)(c1ccc(Oc2cncc(F)c2)c2c1[C@H](O)C(F)(F)C2)C(F)(F)F [Compound 309] : < 50 nM
O=S(=O)(c1ccc(Nc2cc(F)cc(F)c2)c2c1C(O)C(F)(F)C2)C(F)(F)F (stereo not shown) [Compound 507] : < 50 nM
N#CC1(COc2ccc(S(=O)(=O)C(F)(F)F)c3c2CC(F)(F)[C@H]3O)CCC1 [Compound 790] : < 50 nM
CS(=O)(=O)c1ccc(Oc2cncc(Cl)c2)c2c1[C@H](O)C(F)(F)[C@H]2F [Compound 332] : > 1000 nM
N#Cc1c(S(=O)(=O)C(F)(F)F)ccc(Oc2cc(F)cc(Cl)c2)c1Br [Compound 98] : < 50 nM
O=S(=O)(c1ccc(OC2CCNC2)c2c1C(O)C(F)(F)C2)C(F)(F)F (stereo not shown) [Compound 643] : > 1000 nM
N#Cc1cccc(Oc2ccc3c(c2C(F)F)[C@@H](O)C(F)(F)S3(=O)=O)c1 [Compound 435] : < 50 nM
N#Cc1cc(F)cc(Oc2ccc(S(=O)(=O)C(F)(F)F)c3c2[C@@H](N)C[C@H]3O)c1 [Compound 279] : > 1000 nM
CC1(COc2ccc(S(=O)(=O)C(F)(F)F)c3c2CCC3O)COC1 (stereo not shown) [Compound 621] : > 1000 nM
O=S(=O)(CF)c1ccc(Oc2cc(F)c(F)c(F)c2)c2c1[C@H](O)C(F)(F)C2 [Compound 188] : < 50 nM
O=S(=O)(c1ccc(Cn2ccnn2)c2c1[C@H](O)C(F)(F)C2)C(F)(F)F [Compound 536] : > 1000 nM
